Value source: ChEMBL document CHEMBL1201862

tested on: SK-OV-3; experiment: NCI tumour cell line growth inhibition, 48 h
Calls of active or inactive are those of the source. Cut-off read from the data, not from the text of the source: active = GI50 up to about 1.1 µM and inactive = higher.
Experimental readout: GI50

CCCCC#C[I+]c1ccccc1
16.4 µM (inactive)
O=C1c2ccccc2CC1C1(O)C(=O)Nc2c(Cl)cc(Cl)cc21 (centres undefined)
> 100 µM (inactive)
C[NH+]1[C@@H](Cc2ccccc2)C(=O)O[B-]1(F)c1ccccc1 (some centres undefined)
> 100 µM (inactive)

# ---- query compound ----
Query :: Data request, read-out GI50, for COc1ccc(-c2c(C#N)c(N)n(C3OCC(O)C(O)C3O)c(=S)c2C#N)cc1 (centres undefined)
Result :: > 100 µM (inactive)
